# assay-procedure: qHTS of pediatric cancer cell lines to identify multiple opportunities for drug repurposing: Primary screen for Rh41 cells (AID 1347108); note: nearly all actives have a fitted effect of over 70% in size; note: potency is the fitted concentration of half-maximal effect
# experimental-setup: Rh41 rhabdomyosarcoma viability, CellTiter-Glo luminescence, 48 h; series mostly up to 46 µM
Records with an inconclusive call do not appear. Active and inactive are the calls of the source. Calls come from the whole dose curve; as a rule, active = well fitted cell-killing curve with a large enough effect; inconclusive = small, poorly fitted or top-dose-only effect; inactive = no such curve, though single readings can be large or run the other way.
quantity-measured: Potency

1. CCCCCN(C)CCC(O)(P(=O)(O)O)P(=O)(O)O | inactive
2. CCCNC(=O)NS(=O)(=O)c1ccc(Cl)cc1 | inactive
3. C=C1C(=O)[C@@]23C(CC[C@@H]1[C@H]2O)[C@@]12CO[C@]3(O)[C@@H](O)[C@@H]1C(C)(C)CC[C@@H]2O (stereo partly drawn) | 4.69 µM (active)
4. O=C1C(Cl)=C(NCCN2CCOCC2)C(=O)c2ncccc21 | 4.69 µM (active)
5. NC[C@@H]1O[C@@H](O[C@H]2[C@@H](O)[C@H](O[C@@H]3[C@@H](O)[C@@H](N)C[C@H](N)[C@H]3O[C@H]3O[C@H](CN)[C@@H](O)[C@@H](O)[C@H]3N)O[C@H]2CO)[C@H](N)[C@@H](O)[C@@H]1O | inactive

Prompt line: Please report the recorded Potency for O=C1NCC2(CCN(CCc3ccccc3)CC2)O1 .
Response line: inactive

Prompt line: Please report the recorded Potency for COc1ccccc1N1CCN(CCCNc2cc(=O)n(C)c(=O)n2C)CC1 .
Response line: inactive

Prompt line: Please report the recorded Potency for CCOC(=O)O[C@]1(C(=O)OCCl)CC[C@@H]2[C@H]3CCC4=CC(=O)C=C[C@]4(C)[C@@H]3[C@@H](O)C[C@@]21C .
Response line: inactive

This collection of values is drawn from PubChem BioAssay (NCATS).
